SYSTEM TESTED: T1, anti-CD28 Fab (SEQ ID NOs: 202, 203)
T1 construct: biotinylated and captured on neutravidin coated plates in the phage ELISA
T1 sequence (VH, as listed by the source, chain 1 of 2): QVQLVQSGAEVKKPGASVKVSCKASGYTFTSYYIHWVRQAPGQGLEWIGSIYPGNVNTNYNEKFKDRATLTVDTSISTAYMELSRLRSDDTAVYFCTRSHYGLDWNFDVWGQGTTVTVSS
T1 sequence (VL, as listed by the source, chain 2 of 2): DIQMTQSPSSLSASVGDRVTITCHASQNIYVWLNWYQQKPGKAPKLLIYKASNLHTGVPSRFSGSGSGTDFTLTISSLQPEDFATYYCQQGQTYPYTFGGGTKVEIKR
EXPERIMENT SUMMARY: phage binding ELISA on captured biotinylated Fab;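 also: clonal phage supernatants added to wells preincubated with CD28 antigen or blocking buffer only, bound phage detected by ELISA with horseradish-conjugated anti-M13 antibody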
Anti-CD28 Fab (SEQ ID NOs: 202, 203) signal by entry:
VALUE KIND: Anti-CD28 Fab (SEQ ID NOs: 202, 203) signal

• TCAAGATYKWPACL [Phage-958] = 2.05
• DCPWLSGFSRPLLC [Phage-19] = 1.27
• YCAGHTEEHYVKCM [Phage-22] = 0.62
• TCAAGATYAWPECL [Phage-953] = 2.08
• TCAAGAMWHWPVCL [Phage-962] = 2.03
• SCAAGAMYSWPTCL [Phage-935] = 2.16
• NCSAGAQWPWPICL [Phage-936] = 2.15
• RCAAGASYPWPPCL [Phage-925] = 2.25
• TCSAGATYTWPWCF [Phage-941] = 2.14
• SCSAGAMYTWPTCL [Phage-950] = 2.09
• MCSAGAMYPWPTCL [Phage-959] = 2.04
• TCAAGATYAWPYCV [Phage-929] = 2.21
• TCAAGAHYSWPACF [Phage-923] = 2.25
• LCSAGAMWPWPTCL [Phage-908] = 2.39
• HCAAGAHYPWPACL [Phage-968] = 2
• LCAAGFKYPWPLCL [Phage-964] = 2.02

Values were extracted from patent US20260274955A1.
